Each entry below carries its recorded log10(MIC).
# System: Staphylococcus aureus
# EXPERIMENT_NOTES: Antibacterial activity against methicillin-resistant Staphylococcus aureus N315 by microbroth dilution method
# Assay type: functional
Base-10 log of MIC, unit µM.

SMILES_ENTRY	SYSTEM_TESTED	QUANTITY_KIND	RESULT_VALUE
CC(=O)Cn1cc(-c2csc(C)n2)c(=O)c2cc(F)ccc21	Staphylococcus aureus	log10(MIC)	3.21

Fill in: Staphylococcus aureus log10(MIC) for CC(=O)Cn1cc(-c2csc(C)n2)c(=O)c2cccc(F)c21 = 2.91

Tested on Staphylococcus aureus: C/C(Cn1cc(-c2csc(N)n2)c(=O)c2cc(F)cc(F)c21)=N\NC(N)=S . Observed log10(MIC): 2.50

Simply: Cc1nc(-c2c[nH]c3cc(Cl)c(F)cc3c2=O)cs1 , Staphylococcus aureus, log10(MIC) = 2.64

Summary: C/C(Cn1cc(-c2csc(N)n2)c(=O)c2cc(F)c(F)cc21)=N\NC(N)=S , Staphylococcus aureus, log10(MIC) = 1.89

# CC(=O)Cn1cc(-c2csc(N)n2)c(=O)c2cc(F)c(Cl)cc21 with Staphylococcus aureus: log10(MIC) is 2.56

###

# System: Candida albicans
# EXPERIMENT_NOTES: Antifungal activity against drug-resistant Candida albicans
# Type: functional
QUANTITY_KIND: MIC (µM)
Provide the reading as a plain figure in µM.

These recorded examples may help you get a feel for the data.
SMILES_ENTRY	SYSTEM_TESTED	UNITS_SYMBOL	MIC
Nc1nc(-c2c[nH]c3cc(F)c(F)cc3c2=O)cs1	Candida albicans	µM	229
CC(=O)Cn1cc(-c2csc(C)n2)c(=O)c2cc(F)c(Cl)cc21	Candida albicans	µM	366

CC(=O)Cn1cc(-c2csc(N)n2)c(=O)c2cc(F)c(Cl)cc21 tested on Candida albicans gave MIC: 91

Hey, Candida albicans data for Nc1nc(-c2c[nH]c3ccc(F)cc3c2=O)cs1 : MIC came out at 245

Recorded MIC for CC(=O)Cn1cc(-c2csc(C)n2)c(=O)c2cc(F)cc(F)c21 on Candida albicans was 1530

###

# Test system: Aspergillus fumigatus
# EXPERIMENT_NOTES: Antifungal activity against Aspergillus fumigatus
# Assay type: functional
QUANTITY_KIND: MIC (µM)
# unit: µM | format: bare number

SMILES_ENTRY	UNITS_SYMBOL	MIC
CC(=O)Cn1cc(-c2csc(C)n2)c(=O)c2cc(F)cc(F)c21	µM	383
Nc1nc(-c2c[nH]c3c(F)cccc3c2=O)cs1	µM	490
Cc1nc(-c2c[nH]c3ccc(F)cc3c2=O)cs1	µM	985

API: the following record is the query input.
Record C/C(Cn1cc(-c2csc(C)n2)c(=O)c2cc(F)ccc21)=N\NC(N)=S . Reported MIC: 658

###

# System: Staphylococcus aureus
# EXPERIMENT_NOTES: Antibacterial activity against drug-resistant Staphylococcus aureus by microbroth dilution method
# Assay type: functional
Here the recorded MIC is given for each entry.

SMILES_ENTRY	MIC
C/C(Cn1cc(-c2csc(N)n2)c(=O)c2cccc(F)c21)=N\NC(N)=S	21 µM
C/C(Cn1cc(-c2csc(N)n2)c(=O)c2cc(F)c(Cl)cc21)=N\NC(N)=S	5 µM
CC(=O)Cn1cc(-c2csc(C)n2)c(=O)c2cc(F)c(F)cc21	766 µM
C/C(Cn1cc(-c2csc(C)n2)c(=O)c2cc(F)ccc21)=N\NC(N)=S	658 µM
Nc1nc(-c2c[nH]c3c(F)cc(F)cc3c2=O)cs1	918 µM

The value of MIC measured for the compound C/C(Cn1cc(-c2csc(N)n2)c(=O)c2cc(F)ccc21)=N\NC(N)=S turned out to be 82 µM

Reported MIC ( CC(=O)Cn1cc(-c2csc(N)n2)c(=O)c2cc(F)c(F)cc21 ) = 382 µM

In plain terms, C/C(Cn1cc(-c2csc(N)n2)c(=O)c2cc(F)cc(F)c21)=N\NC(N)=S has a documented MIC of 78 µM

Sure, the documented MIC for Cc1nc(-c2c[nH]c3cc(Cl)c(F)cc3c2=O)cs1 is 871 µM

Value of measured MIC for the entry CC(=O)Cn1cc(-c2csc(C)n2)c(=O)c2cc(F)c(Cl)cc21 : 366 µM

Quick note, MIC for CC(=O)Cn1cc(-c2csc(N)n2)c(=O)c2cc(F)cc(F)c21 landed at 764 µM

Please fill in: MIC reported for Cc1nc(-c2c[nH]c3cc(F)c(F)cc3c2=O)cs1 = 1840 µM

The value of MIC measured for the compound CC(=O)Cn1cc(C(C)=O)c(=O)c2cc(F)c(Cl)cc21 turned out to be 1740 µM

Looking up Nc1nc(-c2c[nH]c3c(F)cccc3c2=O)cs1 , I found its MIC recorded as 981 µM

Data point: C/C(Cn1cc(-c2csc(C)n2)c(=O)c2cc(F)cc(F)c21)=N\NC(N)=S ; MIC = 1260 µM

response.value for CCn1cc(C(=O)O)c(=O)c2cc(F)c(N3CCNCC3)cc21 (field: MIC) = 25 µM

Field MIC (entry CC(=O)Cn1cc(-c2csc(C)n2)c(=O)c2cc(F)cc(F)c21 ) reads 1530 µM

Short answer for Nc1nc(-c2c[nH]c3cc(F)c(F)cc3c2=O)cs1 : MIC was 459 µM

Given item C/C(Cn1cc(-c2csc(C)n2)c(=O)c2cccc(F)c21)=N\NC(N)=S , the value recorded as its MIC is 1320 µM

Form: compound = Cc1nc(-c2c[nH]c3ccc(F)cc3c2=O)cs1 ; MIC = 1970 µM

Sure, the documented MIC for C/C(Cn1cc(-c2csc(N)n2)c(=O)c2cc(F)c(Cl)cc21)=N\O is 44 µM

// field: MIC; key: CC(=O)Cn1cc(-c2csc(N)n2)c(=O)c2cc(F)ccc21 ; value = 404 µM

Lab note: Nc1nc(-c2c[nH]c3cc(Cl)c(F)cc3c2=O)cs1 gave MIC of 868 µM

Form field MIC, entry CCOC(=O)c1cn(C/C(C)=N/NC(N)=S)c2cc(F)c(F)cc2c1=O : 670 µM

Lab note: measured MIC of Nc1nc(-c2c[nH]c3ccc(F)cc3c2=O)cs1 was 490 µM

So for C/C(Cn1cc(-c2csc(N)n2)c(=O)c2cc(F)c(F)cc21)=N\NC(N)=S , the logged MIC turned out to be 78 µM
